Readings of pIC50 for the listed compounds
species on record: Homo sapiens; assay: Inhibitory activity against aggregation of human platelet induced by epinephrine 2; assay type: functional; settings: read-out: I50
pIC50: −log10 of the molar value.

COMPOUND: CCCCC[C@@H](O)/C=C/[C@H]1C2CCC(O2)[C@@H]1C/C=C\CCCC(=O)O (stereo in doubt; 5b)
pIC50: 6.15
//
COMPOUND: CCCCC[C@@H](O)/C=C/[C@H]1C2CCC(O2)[C@H]1C/C=C\CCCC(=O)O (stereo in doubt; 3d)
pIC50: 3.77
//
COMPOUND: CCCCC[C@@H](O)/C=C/[C@H]1C2CCC(O2)[C@@H]1C/C=C\CCCC(=O)O (stereo in doubt; 4d)
pIC50: 3.85
//
COMPOUND: CCCCC[C@H](O)/C=C/[C@@H]1C2CCC(O2)[C@@H]1C/C=C\CCCC(=O)O (stereo in doubt; 3b)
pIC50: 5.12

----------
organism: Homo sapiens; assay: Inhibitory activity against aggregation of human platelet induced by adenosine diphosphate; assay type: functional; settings: read-out: I 50
EXPERIMENTAL READOUT: IC50 (µM)

MOLECULE: CCCCC[C@@H](O)/C=C/[C@@H]1C2CCC(O2)[C@H]1C/C=C\CCCC(=O)O (stereo in doubt; 4a)
REPORTED: 150

----------
molecular target: UniProt:P24557; test: Inhibition of human platelet Thromboxane synthetase; details: read-out: I50
Sequence (P24557 whole entry): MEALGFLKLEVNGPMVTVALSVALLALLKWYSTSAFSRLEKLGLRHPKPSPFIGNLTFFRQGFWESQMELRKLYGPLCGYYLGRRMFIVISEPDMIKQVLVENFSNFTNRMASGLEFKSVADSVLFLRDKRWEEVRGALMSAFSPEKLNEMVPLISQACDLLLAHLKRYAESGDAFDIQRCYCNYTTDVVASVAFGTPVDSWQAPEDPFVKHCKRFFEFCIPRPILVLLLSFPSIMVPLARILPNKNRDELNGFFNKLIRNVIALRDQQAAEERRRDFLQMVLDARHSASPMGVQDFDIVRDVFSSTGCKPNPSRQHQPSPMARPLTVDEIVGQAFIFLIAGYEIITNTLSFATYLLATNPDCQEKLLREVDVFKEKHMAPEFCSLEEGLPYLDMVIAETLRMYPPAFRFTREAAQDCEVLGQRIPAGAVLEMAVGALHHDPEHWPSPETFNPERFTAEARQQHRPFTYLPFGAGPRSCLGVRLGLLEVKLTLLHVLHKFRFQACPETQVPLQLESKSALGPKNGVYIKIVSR
pIC50: −log10 of the molar value.
Readings of pIC50 for the listed compounds

COMPOUND: CCCCC[C@@H](O)/C=C/[C@H]1C2CCC(O2)[C@@H]1C/C=C\CCCC(=O)O (stereo in doubt; 5b)
VALUE RELATION SIGN: <
pIC50: 3.00
--
COMPOUND: CCCCC[C@H](O)/C=C/[C@@H]1C2CCC(O2)[C@@H]1C/C=C\CCCC(=O)O (stereo in doubt; 3b)
VALUE RELATION SIGN: =
pIC50: 3.00
--
COMPOUND: CCCCC[C@@H](O)/C=C/[C@H]1C2CCC(O2)[C@H]1C/C=C\CCCC(=O)O (stereo in doubt; 2b)
VALUE RELATION SIGN: <
pIC50: 3.00
--
COMPOUND: CCCCC[C@@H](O)/C=C/[C@H]1C2CCC(O2)[C@@H]1C/C=C\CCCC(=O)O (stereo in doubt; 4d)
VALUE RELATION SIGN: =
pIC50: 3.33
--
COMPOUND: CCCCC[C@H](O)/C=C/[C@H]1C2CCC(O2)[C@@H]1C/C=C\CCCC(=O)O (stereo partly specified)
VALUE RELATION SIGN: <
pIC50: 3.00
--
COMPOUND: CCCCC[C@@H](O)/C=C/[C@@H]1C2CCC(O2)[C@@H]1C/C=C\CCCC(=O)O (stereo in doubt; 3a)
VALUE RELATION SIGN: =
pIC50: 3.00
--
COMPOUND: CCCCC[C@H](O)/C=C/[C@@H]1C2CCC(O2)[C@H]1C/C=C\CCCC(=O)O (stereo partly specified)
VALUE RELATION SIGN: =
pIC50: 3.00
--
COMPOUND: CCCCC[C@H](O)/C=C/[C@@H]1C2CCC(O2)[C@@H]1C/C=C\CCCC(=O)O (stereo in doubt; 2c)
VALUE RELATION SIGN: <
pIC50: 3.00
--
COMPOUND: CCCCC[C@H](O)/C=C/[C@H]1C2CCC(O2)[C@H]1C/C=C\CCCC(=O)O (stereo partly specified)
VALUE RELATION SIGN: <
pIC50: 3.00
--
COMPOUND: CCCCC[C@@H](O)/C=C/[C@@H]1C2CCC(O2)[C@H]1C/C=C\CCCC(=O)O (stereo in doubt; 5d)
VALUE RELATION SIGN: <
pIC50: 3.00
--
COMPOUND: CCCCC[C@@H](O)/C=C/[C@@H]1C2CCC(O2)[C@@H]1C/C=C\CCCC(=O)O (stereo in doubt; 2d)
VALUE RELATION SIGN: =
pIC50: 3.25
